System: OVCAR-5
ASSAY METHOD TEXT: NCI tumour cell line growth inhibition, 48 h
The source made the active and inactive calls. Cut-off read from the data, not from the text of the source: active = GI50 up to about 1.1 µM and inactive = higher.
OBSERVATION TYPE: GI50

Solved cases below.
>>> df
                                   molecule  system_name        readout_value
0  CC1(C)C(=O)C(C)(C)C12SSC1(S2)C(C)(C)C(=O)C1(C)C      OVCAR-5  > 100 µM (inactive)
1  Cc1ccc(/C=C(\NC(=O)c2ccccc2)c2nc3ccccc3[nH]2)cc1      OVCAR-5  > 100 µM (inactive)
2  Oc1cc(O)c2c(c1)O[C@H](c1cc(O)c(O)c(O)c1)[C@H](O)C2 [EPIGALLOCATECHIN]      OVCAR-5   15.6 µM (inactive)

GI50 in this record for COc1cccc(CCCNC(=O)Cc2cc(OC)c(OC)cc2CO)c1 : > 100 µM (inactive)

GI50 in this record for COC(=O)CC1(O)C(/C=C/c2ccccc2)C(C(=O)OC)C(=O)C(C(=O)OC)C1C(=O)OC (stereo not given) : > 100 µM (inactive)

GI50 in this record for CCOC(=O)c1ccc(Nc2nc3ccccc3nc2C(=O)OCC)cc1 : > 100 µM (inactive)

GI50 in this record for O=c1ccc2ccc(OP(=O)(O)O)cc2o1 : > 100 µM (inactive)

GI50 in this record for Fc1ccccc1CN1COc2c(cc(Cl)c3cccnc23)C1 : 3.05 µM (inactive)

GI50 in this record for C[N+](C)(C)c1ncnc2c1ncn2C1CC(O)C(CO)O1 (stereo not given) : > 100 µM (inactive)

GI50 in this record for COC(=O)C1=C(C)NC(C)=C([N+](=O)[O-])C1c1cccc(NO)c1 (stereo not given) : 14.7 µM (inactive)

* * *

System: IGROV-1
ASSAY METHOD TEXT: NCI tumour cell line growth inhibition, 48 h
Activity calls are given as the source filed them. No stated cut-off is given here; in the data, active = GI50 up to about 1.1 µM and inactive = higher.
Entry note: the call must match one of 1 for active, 0 for inactive

Reference set (2 entries):
                                smiles_text  category
0                      CCCNc1ncnc2[nH]ncc12         0
1  C=COC(=O)N[C@H]1CCc2cc(OC)c(OC)c(OC)c2-c2ccc(SC)c(=O)cc21         1

Please find the next compound below.
Look up the recorded call for CCOC(=O)C(=O)Nc1ccc([N+](=O)[O-])cc1C#N in this test.
0

* * *

System: HOP-92
ASSAY METHOD TEXT: NCI tumour cell line growth inhibition, 48 h
Active and inactive are the calls of the source. No stated cut-off is given here; in the data, active = GI50 up to about 1.1 µM and inactive = higher.
OBSERVATION TYPE: GI50

Solved cases below.
>>> df
                                   compound        readout_value
0    O=C1Oc2ccccc2C(=O)/C1=C\NC(=S)c1ccncc1  > 100 µM (inactive)
1            O=C1CCC(=O)c2c1c(O)c1ccncc1c2O   22.8 µM (inactive)
2  Cc1csc(CCC(N)C(=O)O)n1 (stereo unspecified)  > 100 µM (inactive)
3  Cc1ccc(S(=O)(=O)OCCOCCOCCOCCOCCOS(=O)(=O)c2ccc(C)cc2)cc1   35.7 µM (inactive)
4             COc1cc(C2(C)SCCCS2)cc(OC)c1OC  > 100 µM (inactive)
5     Clc1ccc(/N=C/c2cc3cc(Br)ccc3nc2Cl)cc1   > 50 µM (inactive)
6  Cc1cccc(N2C(=O)/C(=C/c3ccc(N(CCC#N)CCC#N)cc3C)N=C2c2cc([N+](=O)[O-])ccc2Cl)c1  > 100 µM (inactive)
7  c1ccc(/N=C(\N2CCCCC2)N(CCN2CCCCC2)c2ccccc2)cc1   1.44 µM (inactive)

GI50 in this record for CC/N=C(\N)CSS(=O)(=O)O : > 100 µM (inactive)

GI50 in this record for CC1=NC(C)(C)N(O)C1(C)C : > 100 µM (inactive)

GI50 in this record for O=c1oc(-c2ccc(O)c(O)c2)cc2cccc(O)c12 : 2.07 µM (inactive)
